quantity.kind: Kd (µM)
Answer format: numeric, µM implied, no suffix.

[in] Hi! What's the reported Kd for CCc1nc(-c2cccc(N(C)S(=O)(=O)c3ccccc3)c2)c(-c2ccnc(Nc3ccc(N4CCN(C(C)=O)CC4)nc3)n2)s1 on ZAK?
[out] 0.22

---

Tested on: CSF1R;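 note: KINOMEscan kinase panel screen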
Conditions: concentration: 1 μM, replicates: in singlicate; n = 1
Please respond with reported %Inh for every item in the list.
Could you give me the number in %? Just the number is fine.

[in] Which %Inh is listed for CNc1nccc(-c2c(-c3ccc(F)cc3)ncn2CCCN2CCOCC2)n1 ?
[out] 0

[in] I would be grateful if you could share the reported %Inh for FC(F)(F)c1ccc(-c2cc(-c3c[nH]nc3-c3ccccn3)ccn2)cc1 .
[out] 0

[in] %Inh for Cn1cc(-c2ccc3c(c2)CCN3C(=O)Cc2cccc(C(F)(F)F)c2)c2c(N)ncnc21 ?
[out] 6

[in] For Nc1nc(-c2ccc3c(N)n[nH]c3c2)cc(N2CCCCC2)n1 , what is its reported %Inh?
[out] 1

[in] Value lookup for %Inh; key = CCC(CC)(CC)n1cnc2c(N)ncnc21
[out] 0
